The measurements presented in this section are drawn from patent US20240002497A1.

# SYSTEM_UNDER_TEST: rhNav1.7α (rhesus monkey, UniProt Q15858 1-1988 (human entry))
# ASSAY_PROCEDURE: cell-based or functional assay
MEASURED_QUANTITY: 2-pulse IC50 [M], P2

INSERT INTO assay_data (binder, value_measured) VALUES
  ('F010300477 (VHH, vs F0103275B05: A94W) VHH: EVQLVESGGGLVQPGGSLRLSCAASGSIFNINSMAWYRRAPGKQRELVASSTNGGSTNYADSVKGRFTISRDNAKRVYLQMNSLTPEDTAVYYCNWLLQPSIYDISRTYWGQGTLVTVSS', '1e-06 M'),
  ('F010300684 (VHH, vs F0103275B05: S27P, I28V, I31W, N53P, N93R, T101I) VHH: EVQLVESGGGLVQPGGSLRLSCAASGPVFNWNSMAWYRRAPGKQRELVASSTPGGSTNYADSVKGRFTISRDNAKRVYLQMNSLTPEDTAVYYCRALLQPSIYDISRIYWGQGTLVTVSS', '1e-06 M'),
  ('F010300659 (VHH, also called F0103275B05(S27P, I28V, S50Y, N53P, G55W, S56D, T57W, N93R, A94W)+FLAG3-HIS6) VHH: EVQLVESGGGLVQPGGSLRLSCAASGPVFNINSMAWYRRAPGKQRELVAYSTPGWDWNYADSVKGRFTISRDNAKRVYLQMNSLTPEDTAVYYCRWLLQPSIYDISRTYWGQGTLVTVSS', '7e-07 M'),
  ('F010300631 (VHH, vs F0103275B05: S27P, I28V, S50Y, N53P, N93R) VHH: EVQLVESGGGLVQPGGSLRLSCAASGPVFNINSMAWYRRAPGKQRELVAYSTPGGSTNYADSVKGRFTISRDNAKRVYLQMNSLTPEDTAVYYCRALLQPSIYDISRTYWGQGTLVTVSS', '8e-07 M'),
  ('F010300468 (VHH, vs F0103275B05: N93R; also called F0103275B05(N93R)+FLAG3-HIS6; F103275B05(N93R)) VHH: EVQLVESGGGLVQPGGSLRLSCAASGSIFNINSMAWYRRAPGKQRELVASSTNGGSTNYADSVKGRFTISRDNAKRVYLQMNSLTPEDTAVYYCRALLQPSIYDISRTYWGQGTLVTVSS', '3e-06 M');
